# PROTOCOL DESCRIPTION: NCI Yeast Anticancer Drug Screen. Data for the mlh1 rad18 strain (AID 175)
# PARTICULARS: S. cerevisiae mlh1 rad18 strain growth inhibition; at 50.0 µM (retest, dose inferred, filed as 5.0); stronger effect = higher value
The panel holds about 79,000 compounds, 15% with a hit somewhere; the sample as a whole holds those more often. Where a SMILES comes first, the peptide text is derived from it. The star is where a group is joined. Trt = c1ccc(C(c2ccccc2)(c2ccccc2)*)cc1; Cbz = O=C(OCc1ccccc1)*
ENDPOINT LABEL: growth inhibition (%)

>>> recorded_measurement("CN1CCN(CCOC(=O)N2c3ccccc3Sc3ccccc32)CC1")
-3
>>> recorded_measurement("CC(=O)Oc1cc2c(cc1OC(C)=O)OCC(c1ccc(C)cc1)C2 (centres undefined)")
64
>>> recorded_measurement("CCOC(C)c1ccccc1 (centres undefined)")
99
>>> recorded_measurement("COC(=O)C(CSC(c1ccccc1)(c1ccccc1)c1ccccc1)NC(=O)C(CC(N)=O)NC(=O)OCc1ccccc1 (stereo not drawn) (Cbz-Asn-Cys(Trt)-OMe; configuration not given here)")
88
>>> recorded_measurement("O=C(Nc1ccc(S(=O)(=O)NC2CCCCC2)cc1)OC1CCCCC1")
95
>>> recorded_measurement("O=C(NNS(=O)(=O)c1ccccc1)Nc1ccccc1")
15
>>> recorded_measurement("CC(C)(C)c1cc(C(O)(C(F)(F)F)C(F)(F)F)c(S)c(C(O)(C(F)(F)F)C(F)(F)F)c1")
95
>>> recorded_measurement("CN(C)CCNc1ccc(O)c2sc3ccccc3c(=O)c12")
81
>>> recorded_measurement("C/C(=C/c1ccccc1)C(=O)C1C(c2ccccc2)CC(O)C(C)C1c1ccccc1 (centres undefined)")
90
>>> recorded_measurement("O=C(Nc1ccccc1)Oc1c(Cl)c(Cl)c(Cl)c(Cl)c1Cl")
98
>>> recorded_measurement("c1cc(NC2CCCCC2)ccc1CN1CCOCC1")
82
>>> recorded_measurement("CC(C)(C)c1ccc(OC(=O)Nc2ccc(Cl)cc2[N+](=O)[O-])c(Br)c1")
38
>>> recorded_measurement("COC(=O)c1[nH]cnc1/N=N/N(C)C")
99
>>> recorded_measurement("O=C(O)/C(=C\\c1ccc(F)cc1)c1ccccc1")
9
>>> recorded_measurement("C[C@H](CCC(=O)O)[C@H]1CC[C@H]2[C@@H]3[C@@H](O)C[C@@H]4C[C@H](O)CC[C@]4(C)[C@H]3CC[C@]12C")
99
>>> recorded_measurement("Clc1ccc2oc(N3CCCCC3)nc2c1")
11
>>> recorded_measurement("O=C(O)CSc1nc(-c2ccccc2)c(-c2ccccc2)n1-c1ccccn1")
6
>>> recorded_measurement("N#CSCCSC#N")
95
>>> recorded_measurement("Oc1c(Br)c(Br)c(O)c(Br)c1Br")
35
>>> recorded_measurement("CCC(=O)/C(=C\\I)c1ccccc1")
21
>>> recorded_measurement("Cc1ccc(-c2c3c(cc4cc(C)ccc24)C(=O)OC3=O)cc1")
25
>>> recorded_measurement("CC(=O)N(C1=C(Cl)C(=O)c2ccccc2C1=O)c1ccc(Cl)cc1")
99
>>> recorded_measurement("O=[N+]([O-])C1C(c2ccccc2)CC=CC1N1CCCC1 (centres undefined)")
98
>>> recorded_measurement("OCc1ccccc1CC(O)(c1ccccc1)c1ccccc1")
90
>>> recorded_measurement("COC1(CO)C(=O)N(C)CC(=O)N1C (centres undefined)")
99
>>> recorded_measurement("Cn1cnc([N+](=O)[O-])c1Sc1nc2cccnc2s1")
90
>>> recorded_measurement("CCCCc1ccc2nc(C)cc(N/N=C/c3ccc4c(c3)OCO4)c2c1")
35
>>> recorded_measurement("CN(C)COC(=S)SCN(C)C")
99
>>> recorded_measurement("CN(C)/N=C(/CC(O)(C(F)(F)F)C(F)(F)F)c1ccc([N+](=O)[O-])cc1")
21
>>> recorded_measurement("C(C#Cc1ccccc1)#CCc1ccccc1")
21
>>> recorded_measurement("S=c1[nH]c2ccc(Cl)cc2s1")
91
>>> recorded_measurement("O=C(O)/C(=C/c1c(O)ccc2ccccc12)c1csc(-c2nc(/C(=C\\c3c(O)ccc4ccccc34)C(=O)O)cs2)n1")
68
>>> recorded_measurement("COC(=O)[C@H]1O[C@H]1c1ccncc1")
-13
>>> recorded_measurement("Nc1c(-c2c(Cl)cccc2Cl)[n+]([O-])c2ccccc2[n+]1[O-]")
99
>>> recorded_measurement("CCOC(=O)/C=C/c1ccc([N+](=O)[O-])o1")
93
>>> recorded_measurement("CCN(CC)CC(C)(C)C(=O)/C=C/c1ccc(Cl)c(Cl)c1")
97
>>> recorded_measurement("C/C(=N\\NC(=S)N(C)C1CCCCC1)c1ccc2ccccc2n1")
97
>>> recorded_measurement("COC(O)C(=O)c1c2c(cc3c1CC1(Cc4cc5c(cc4C1)CCC5)C3)CCC2 (centres undefined)")
98
>>> recorded_measurement("COC(=O)c1[nH]c(=O)c(C#N)c(C(=O)OC)c1C(=O)c1ccc(Cl)c(Cl)c1")
90
>>> recorded_measurement("O=C1CCCC/C1=C(\\Br)I")
99
>>> recorded_measurement("COc1ccc2c(c1)CC[C@@H]1[C@@H]2CC[C@]2(C)/C(=N/OCCN3CCCCC3)CC[C@@H]12")
98
>>> recorded_measurement("c1ccc2c(c1)[nH]c1cc3ccncc3cc12")
56
>>> recorded_measurement("CCOC(=O)C(C)(c1c(C)[nH]c2ccccc12)c1c(C)[nH]c2ccccc12")
92
>>> recorded_measurement("O.O.O=C(O)C(O)C(O)C(OC1OC(CO)C(O)C(O)C1O)C(O)CO.O=C(O)C(O)C(O)C(OC1OC(CO)C(O)C(O)C1O)C(O)CO.[NH-]C1CCCCC1[NH-].[Pt+2] (centres undefined)")
32

Every entry's value here was drawn from PubChem BioAssay (NCI).
